- Tested on: butelase-1
- Sequence (as listed by the source): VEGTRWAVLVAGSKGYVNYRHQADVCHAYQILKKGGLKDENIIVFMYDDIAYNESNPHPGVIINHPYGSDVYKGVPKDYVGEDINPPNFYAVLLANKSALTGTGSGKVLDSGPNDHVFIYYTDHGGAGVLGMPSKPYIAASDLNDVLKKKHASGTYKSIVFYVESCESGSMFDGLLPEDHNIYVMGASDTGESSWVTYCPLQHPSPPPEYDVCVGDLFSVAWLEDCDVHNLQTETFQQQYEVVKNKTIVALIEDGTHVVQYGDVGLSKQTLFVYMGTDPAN
- test.name: Butelase-1-catalyzed peptide cyclization (substrate screen, pH scan, kinetics)
- Type: biochemical
- applied.conditions: 25 nM butelase-1, 5 μM peptide, pH 4.5, 25° C., 60 min
Where no end group is shown, it is not given here.
measure.name: substrate preference among P1-Asp peptides

(Q) Which substrate preference among P1-Asp peptides is listed for GISTKSIPPISYRDKL (GISTKSIPPISYRDKL-NH2) [Peptide 21g] ?
(A) slight preference

(Q) Which substrate preference among P1-Asp peptides is listed for GISTKSIPPISYRDLL (GISTKSIPPISYRDLL-NH2) [Peptide 21d] ?
(A) slight preference

(Q) Which substrate preference among P1-Asp peptides is listed for GISTKSIPPISYRDQL (GISTKSIPPISYRDQL-NH2) [Peptide 21h] ?
(A) slight preference

Just for reference, patent US20240117402A1 is where these values come from.
